From: PubChem BioAssay AID248

Test system: L1210 leukemia ip in BDF1 mice, survival T/C
Test: NCI In Vivo Anticancer Drug Screen. Data for tumor model L1210 Leukemia (intraperitoneal) in B6D2F1 (BDF1) mice
Conditions: endpoint: mean survival time; dose: 200.0 mg/kg/injection; schedule: Q01DX001 (ip); vehicle: carboxymethylcellulose (CMC); higher = longer survival
Inconclusive results and toxic doses are left out.
In this section we review reported T/C values for a set of molecules.

molecule | T/C
CNc1ncnc2c1cnn2C | 103 % of control
CN(N=O)c1ccc(/C=C/c2ccnc3ccccc23)cc1 | 93 % of control

# input What measured T/C goes with `N#CCCN(NC(=O)OCc1ccccc1)C(=O)OCc1ccccc1` ?
# output 89 % of control

# input Consider the molecule shown here: `Cc1ccc(NC(=O)NCCBr)cc1` What is its recorded T/C?
# output 106 % of control

# input Recorded T/C for `Cn1c(=O)[nH]c(=O)c2c1[nH]c(=O)c(=O)n2C` , please?
# output 95 % of control

----------
Test system: L1210 leukemia ip in BDF1 mice, survival T/C
Assay: NCI In Vivo Anticancer Drug Screen. Data for tumor model L1210 Leukemia (intraperitoneal) in B6D2F1 (BDF1) mice
Settings: endpoint: mean survival time; dose: 100.0 mg/kg/injection; schedule: Q01DX001 (ip); vehicle: carboxymethylcellulose (CMC); higher = longer survival
Toxic doses and inconclusive results are not listed.
Overview of recorded T/C for various compounds

// solved cases for T/C follow
compound | value-observed
CCOC(=O)C(C)Oc1cc(C)c(Cl)cc1Cl (configuration not stated) | 96 % of control
CC(C)CC(C)OB(OC(C)CC(C)C)OC(C)CC(C)C (configuration not stated) | 111 % of control
Cc1cccn(C(=O)c2ccccc2)c1=N | 100 % of control
CCCCCOB(OCCCCC)OCCCCC | 95 % of control
O=c1[nH]c(-c2ccccc2)ncc1OCc1ccccc1 | 100 % of control

Now for another entry.
# input Requested field: T/C. Item: CCCCCC(C)(O)CC(C)(C)C (configuration not stated)
# output 92 % of control

----------
Tested on: L1210 leukemia ip in BDF1 mice, survival T/C
Assay: NCI In Vivo Anticancer Drug Screen. Data for tumor model L1210 Leukemia (intraperitoneal) in B6D2F1 (BDF1) mice
Details: endpoint: mean survival time; dose: 400.0 mg/kg/injection; schedule: Q01DX009 (ip); vehicle: Klucel (hydroxypropylcellulose) (HPC)
Inconclusive results and toxic doses are left out. No stated cut-off is given here; in the data, active means T/C of 150% or more; inactive means T/C below 125%.
Outcome (select one): 1 = active, -1 = inactive

compound | label-value
CCCCOC(=O)OCNC(=O)Oc1ccc(Br)cc1Br | -1
CCOC(=O)/C=C\c1c(OC)nc2ccccn2c1=O (tested in a mixture with another compound) | -1
CSc1ccc(NC(=O)Oc2ccc(NC(C)=O)cc2)cc1 | -1
C#CC1(OC(N)=O)CCCCC1 | -1
Cc1cccc(NC(=O)NCCCl)c1 | -1

# input What did this assay record as the result for `O=C(Nc1nccs1)Nc1ccccc1Cl` ?
# output -1

# input Per the records of this test, what outcome belongs to `CN(C)/N=N/c1nc(Cc2ccccc2)[nH]c1C(N)=O` ?
# output 1

# input How was `CN(C)C(=O)Nc1ccc(Cc2ccc(NC(=O)N(C)C)cc2)cc1` classified in this test?
# output -1

# input So what was the verdict on `C1=C\CCC2(OCCO2)C2(CC/1)OCCO2` in this test?
# output -1

# input Fill in: this test's call for `c1ccc2c(c1)C(=NN=C1c3ccccc3-c3ccccc31)c1ccccc1-2` is ___
# output -1

# input Could you check what this test reported for O=C(NC1CCC(CC2CCCCC2)CC1)C(Cl)Cl (configuration not stated) ?
# output -1

# input Recorded call for `O=C(Nc1ccc(Cl)c(Cl)c1)Oc1cccc(NC(=S)Nc2ccccc2)c1` ?
# output -1

# input Hello, I am checking results. What call was entered for COc1cc(C(=O)NC2CC(C)CC(C)(C)C2)cc(OC)c1OC (configuration not stated) ?
# output -1

----------
Items are presented alongside their recorded T/C.
Test system: L1210 leukemia ip in BDF1 mice, survival T/C
Assay: NCI In Vivo Anticancer Drug Screen. Data for tumor model L1210 Leukemia (intraperitoneal) in B6D2F1 (BDF1) mice
Details: endpoint: mean survival time; dose: 200.0 mg/kg/injection; schedule: Q01DX001 (ip); vehicle: saline with Tween-80; higher = longer survival
Toxic doses and inconclusive results are not listed.

These solved cases illustrate the format of a correct answer.
compound | value-observed
CC1CCC2(C)CCC3(C)C(=CCC4C5(C)CCC(OC(=O)c6ccccc6)C(C)(C)C5CCC43C)C2C1C (stereo unspecified) | 102 % of control
CCOC(=O)c1c[nH]c2c(Cl)ccc(-c3ccccc3)c2c1=O | 96 % of control
CCCCCCCCCC(C)CC1CCCCC1 (stereo unspecified) | 96 % of control
CC(=O)Nc1ccc(CC(=O)O)cc1 | 93 % of control

# input # T/C lookup, item `O=C(Nc1ccc([N+](=O)[O-])cc1Cl)OCCCl`
# output 98 % of control

# input Consider the compound shown here: `N#C/C(=C(/C#N)c1ccccc1)c1ccccc1` What is its recorded T/C?
# output 93 % of control

# input Could you tell me which T/C is on file for `CC(C)(CCCC(C)(C)[N+](=O)[O-])[N+](=O)[O-]` ?
# output 94 % of control

----------
// reported T/C per item
Tested on: L1210 leukemia ip in BDF1 mice, survival T/C
Assay: NCI In Vivo Anticancer Drug Screen. Data for tumor model L1210 Leukemia (intraperitoneal) in B6D2F1 (BDF1) mice
Settings: endpoint: mean survival time; dose: 200.0 mg/kg/injection; schedule: Q04DX003 (ip); vehicle: saline; higher = longer survival
Inconclusive results and toxic doses are left out.

compound | system-under-test | T/C
CCCCOC(=O)c1ccc(NC(=O)CCC(C)Cl)cc1 (stereo not given) | L1210 leukemia ip in BDF1 mice, survival T/C | 90 % of control
O=C1CCC(N2C(=O)C3C4C=CC(C4)C3C2=O)C(=O)N1 (stereo not given) | L1210 leukemia ip in BDF1 mice, survival T/C | 101 % of control
CC(=O)NCCOc1ccc(N)cc1Cl | L1210 leukemia ip in BDF1 mice, survival T/C | 92 % of control
BrCC(CBr)(CBr)CBr | L1210 leukemia ip in BDF1 mice, survival T/C | 100 % of control
NC(=O)Oc1ccccc1 | L1210 leukemia ip in BDF1 mice, survival T/C | 98 % of control

# input Observed T/C on L1210 leukemia ip in BDF1 mice, survival T/C for `COc1cc(N2CCOCC2)ccc1[N+](=O)[O-]` , please.
# output 103 % of control

# input Request - read-out T/C | tested on L1210 leukemia ip in BDF1 mice, survival T/C | compound `CC(=O)C1(O)CCCCC1`
# output 98 % of control

# input Provide the documented T/C with L1210 leukemia ip in BDF1 mice, survival T/C as the system for `C[n+]1ccccc1C=O`
# output 107 % of control

# input Request body: readout T/C, system L1210 leukemia ip in BDF1 mice, survival T/C, query `COc1cc2c[n+](C)c3c4cc(OC)c(OC)cc4ccc3c2cc1OC` . Return the value.
# output 104 % of control

# input Lab note: need T/C for `NCCN1CCN=C1C1=NCCN1CCN` on L1210 leukemia ip in BDF1 mice, survival T/C, anyone have it?
# output 98 % of control

# input Give the reported T/C for `CC1(C)/C(=C/c2ccccc2)C(=O)c2ccccc21` (system: L1210 leukemia ip in BDF1 mice, survival T/C).
# output 98 % of control

# input L1210 leukemia ip in BDF1 mice, survival T/C / T/C / CCN(CC)CC(=O)NCC(CC)(CCN1CCOCC1)c1cccc2ccccc12 (stereo not given) : value?
# output 95 % of control

# input Lab note: need T/C with L1210 leukemia ip in BDF1 mice, survival T/C for entry `CCCCNC=O` , please look it up.
# output 93 % of control

# input Please provide the recorded T/C for `CCOC(=O)NC(C(=O)OC)C(=O)OC` , tested on L1210 leukemia ip in BDF1 mice, survival T/C.
# output 97 % of control

# input Given the entry `COc1cccc(CN(C)CCC(=O)O)c1` , what T/C was observed with L1210 leukemia ip in BDF1 mice, survival T/C?
# output 109 % of control

# input For L1210 leukemia ip in BDF1 mice, survival T/C, provide T/C of `Nc1nc2ncc(=O)[nH]c2c(=O)[nH]1` please.
# output 106 % of control

----------
System: L1210 leukemia ip in BDF1 mice, survival T/C
Assay: NCI In Vivo Anticancer Drug Screen. Data for tumor model L1210 Leukemia (intraperitoneal) in B6D2F1 (BDF1) mice
Details: endpoint: mean survival time; dose: 12.5 mg/kg/injection; schedule: Q01DX009 (ip); vehicle: Klucel (hydroxypropylcellulose) (HPC); higher = longer survival
Inconclusive results and toxic doses are left out.
experimental-endpoint: T/C

Below are worked cases with known answers.
compound | T/C
Nc1nc(N)c(CCCOc2ccc(C(=O)O)cc2)c(N)n1 | 95 % of control
CC(=O)OC1CCC2(C)C(CCC3C4CC=C(C(C)=O)C4(C)OC(=O)CC32)C1 (stereo not drawn) | 98 % of control

# input Would you mind telling me what T/C value was observed for `CN1C(=O)CC2(CCN(CCCC(=O)c3ccc(F)cc3)CC2)C1=O` ?
# output 95 % of control

# input What does the record list as T/C for CCCCN1C(=O)C2CC=C3C=CN4C(C3C2C1=O)C1C(=O)N(CCCC)C(=O)C1C41CC(=O)N(CCCC)C1=O (stereo not drawn) ?
# output 101 % of control

# input # lookup: T/C of `CC(=O)CC(OC(=O)c1cc([N+](=O)[O-])cc([N+](=O)[O-])c1)(C(F)(F)F)C(F)(F)F`
# output 88 % of control
